- System: HOP-62
- assayProtocol: NCI tumour cell line growth inhibition, 48 h
The source made the active and inactive calls. Cut-off read from the data, not from the text of the source: active = GI50 up to about 1.1 µM and inactive = higher.
Possible outcomes: YES for active, NO for inactive

- Cn1c(=O)c2nc3nnc(C#N)c(N)n3c2n(C)c1=O: NO
- COc1ccc(CSCc2cc(OC)c(OC)c(OC)c2)cc1: NO
- COc1cc2cc(C(=O)N3CC(COS(C)(=O)=O)c4c3cc([N+](=O)[O-])c3ccccc43)[nH]c2c(OC)c1OC (centres undefined): NO
- COc1ccc2c(c1)-c1c(c3ccccc3n1CCN1CCOCC1)CC2: NO
- Cc1ccc2c(c1C)-c1c(ccc(C)c1C)C(=O)C2=O: NO
- c1ccc(C2(c3cc4ccccc4[nH]3)OCCO2)nc1: NO
- O=c1c2cc(O)c(O)cc2oc2cc(O)c(C3OC(CO)C(O)C(O)C3O)c(O)c12 (centres undefined): NO
- Cc1nn(C(=O)c2ccccc2O)c2c1C(c1ccc3ccccc3c1O)SC(=N)N2 (centres undefined): NO
- Cc1cc(N(CCOS(C)(=O)=O)CCOS(C)(=O)=O)ccc1/C=N/c1ccc(-c2csc(-c3ccc(Br)cc3)n2)cc1: NO
- O=C1NC(=O)[C@H]2C3C=CC([C@@H]12)[C@@H]1C(=O)NC(=O)[C@H]31: NO
- c1ccc(CN2CCN3CCN(CC2)CCN(Cc2ccccc2)CC3)cc1: NO
- CC(C)(C)c1cc(-c2c3nc(c(-c4cc(C(C)(C)C)cc(C(C)(C)C)c4)c4ccc([nH]4)c(-c4cc(C(C)(C)C)cc(C(C)(C)C)c4)c4nc(c(-c5cc(C(C)(C)C)cc(C(C)(C)C)c5)c5ccc2[nH]5)C=C4)C=C3)cc(C(C)(C)C)c1: NO
- CCC(=O)N1C(=S)SC[C@H]1C(=O)OC: NO
- COc1cc(/C=C2\N=C(c3ccccc3)N(c3nc4cc(C)c(C)cc4s3)C2=O)ccc1O: NO
- CC1=Nc2c(N)nc(N)nc2N(C)C1: NO
- Cc1nc(O)nc(O)c1/C=C/C(=O)O: NO
- O=S(=O)(CCn1c(Sc2ccccc2)c(Sc2ccccc2)c2ccccc21)c1ccccc1: NO
- Clc1ccccc1C(n1cc(Br)cn1)n1cc(Br)cn1: NO
- COc1cc(OC)c(/C=C\c2cc(/C=C/c3c(OC)cc(OC)cc3OC)c3ccccc3[n+]2C)c(OC)c1: YES
